Target: human liver glycogen phosphorylase a (HLGPa) (Homo sapiens, UniProt P06737)
Sequence (P06737 whole entry): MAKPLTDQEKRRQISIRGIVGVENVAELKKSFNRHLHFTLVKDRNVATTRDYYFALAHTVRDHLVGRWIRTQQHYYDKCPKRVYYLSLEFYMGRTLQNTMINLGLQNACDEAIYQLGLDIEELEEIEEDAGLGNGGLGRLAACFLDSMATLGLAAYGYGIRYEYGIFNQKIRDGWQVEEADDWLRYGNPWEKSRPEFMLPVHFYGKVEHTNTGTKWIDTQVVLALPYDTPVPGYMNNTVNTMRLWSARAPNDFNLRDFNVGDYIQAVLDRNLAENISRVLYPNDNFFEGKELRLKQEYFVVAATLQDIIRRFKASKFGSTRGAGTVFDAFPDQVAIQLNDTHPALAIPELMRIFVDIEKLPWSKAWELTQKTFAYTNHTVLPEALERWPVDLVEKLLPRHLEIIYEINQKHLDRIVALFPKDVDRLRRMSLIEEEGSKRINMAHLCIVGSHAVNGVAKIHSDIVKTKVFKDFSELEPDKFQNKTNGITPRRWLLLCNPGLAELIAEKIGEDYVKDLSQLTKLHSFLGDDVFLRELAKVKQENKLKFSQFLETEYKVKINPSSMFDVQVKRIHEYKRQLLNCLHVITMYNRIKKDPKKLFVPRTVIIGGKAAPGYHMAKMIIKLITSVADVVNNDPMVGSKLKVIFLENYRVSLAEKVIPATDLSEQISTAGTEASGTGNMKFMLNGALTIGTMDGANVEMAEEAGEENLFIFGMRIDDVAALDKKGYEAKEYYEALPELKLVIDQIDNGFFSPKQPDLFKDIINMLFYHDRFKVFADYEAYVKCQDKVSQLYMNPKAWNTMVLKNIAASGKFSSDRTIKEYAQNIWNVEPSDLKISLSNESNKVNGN
Experiment: GPa activity assay, reverse direction (release of inorganic phosphate from glucose-1-phosphate), HLGPa
Conditions: recombinant human liver GPa, glucose present
measurement label: IC50 (nM)
Numeric only. Scale: nM

Sample answers from the record:
O=C(N[C@@H](Cc1ccccc1)C(=O)N1CC(O)C1)c1cc2cc(Cl)ccc2[nH]1    65
O=C(N[C@@H](Cc1ccccc1)C(=O)N1C[C@H](O)[C@@H](O)C1)c1cc2cc(Cl)ccc2[nH]1    137

Prompt: For the molecule O=C(N[C@@H](Cc1ccccc1)C(=O)N1CC(=NO)C1)c1cc2cc(Cl)ccc2[nH]1 , what IC50 is on record?
Completion: 65

Prompt: For the molecule O=C(NCC(=O)N1CCSC1)c1cc2cc(Cl)ccc2[nH]1 , what IC50 is on record?
Completion: 307

Prompt: For the molecule O=C(NC(Cc1ccccc1)C(=O)N1CCC(O)C1)c1cc2cc(Cl)ccc2[nH]1 (stereo not shown) , what IC50 is on record?
Completion: 45

Prompt: For the molecule O=C(N[C@@H](Cc1ccccc1)[C@@H](O)C(=O)N1CC[C@H](O)C1)c1cc2cc(Cl)ccc2[nH]1 , what IC50 is on record?
Completion: 54

Prompt: For the molecule O=C(N[C@@H](Cc1ccccc1)[C@@H](O)C(=O)N1C[C@H](O)[C@@H](O)C1)c1cc2cc(Cl)ccc2[nH]1 , what IC50 is on record?
Completion: 73

* * *

In this section, each of the molecules is paired with its reported IC50.
Molecular target: human liver glycogen phosphorylase a (HLGPa) (Homo sapiens)
Experiment: GPa activity assay, reverse direction (release of inorganic phosphate from glucose-1-phosphate), HLGPa
Settings: recombinant human liver GPa, glucose present
Procedure: In this invention, enzyme activity is determined by measurement of the reverse activity of GPa, i.e., by measuring the release of phosphate due to the incorporation of glucose-1-phosphate into glycogen, where the amount of phosphate released is determined using the spectrophotometric method and experimental conditions described hereinbelow. […]
Numeric only. Scale: nM

O=C(N[C@@H](Cc1ccccc1)C(=O)N1C[C@@H](O)[C@@H](O)C1)c1cc2cc(Cl)ccc2[nH]1    30

Prompt: What measured IC50 is associated with O=C(N[C@@H](Cc1ccccc1)[C@@H](O)C(=O)N1C[C@@H](O)[C@@H](O)C1)c1cc2cc(Cl)ccc2[nH]1 on human liver glycogen phosphorylase a (HLGPa) (Homo sapiens)?
Completion: 59

Prompt: What measured IC50 is associated with O=C(N[C@@H](Cc1ccccc1)[C@@H](O)C(=O)N1CC(O)C1)c1cc2cc(Cl)ccc2[nH]1 on human liver glycogen phosphorylase a (HLGPa) (Homo sapiens)?
Completion: 236
